# Test system: Leptosphaeria nodorum
# ASSAY_OVERVIEW: Glume Blotch of Wheat (LEPTNO) whole-plant disease control test
# Assay type: in vivo
# EXPERIMENTAL_CONTEXT: Parastagonospora nodorum, foliar; 75 ppm (footnote b), wheat foliage
For each of the molecules below, state its pest or weed control at 75 ppm.

INPUT: For the molecule O=c1ncn(-c2cccc(Oc3ccc(CCNc4ncnc5scc(Cl)c45)cc3)n2)[nH]1 [Compound 90] , give its reported pest or weed control at 75 ppm.
OUTPUT: 0 to 49%

INPUT: Look up and state reported pest or weed control at 75 ppm for FC(F)(F)COc1cccc(Oc2ccc(CCNc3ncnc4scc(Cl)c34)cc2)n1 [Compound 111]
OUTPUT: 0 to 49%

INPUT: Consider the molecule N#Cc1ccnc(Oc2ccc(CCNc3ncnc4scc(Br)c34)cc2)c1 [Compound 47] and give its recorded pest or weed control at 75 ppm.
OUTPUT: 80 to 100%

INPUT: Give recorded pest or weed control at 75 ppm. Clc1csc2ncnc(NCCc3ccc(Oc4nnc(COc5ccccc5)s4)cc3)c12 [Compound 119]
OUTPUT: 0 to 49%

INPUT: // fetch pest or weed control at 75 ppm given entry Clc1csc2ncnc(NCCc3ccc(Oc4nnc(-c5ccncc5)s4)cc3)c12 [Compound 118]
OUTPUT: 0 to 49%

INPUT: Given the molecule Fc1nc(F)c(F)c(Oc2ccc(CCNc3ncnc4scc(Cl)c34)cc2)c1F [Compound 110] , write its reported pest or weed control at 75 ppm.
OUTPUT: 50 to 79%

INPUT: Using the record for COc1nsc(Oc2ccc(CCNc3ncnc4scc(Cl)c34)cc2)n1 [Compound 122] , state its measured pest or weed control at 75 ppm.
OUTPUT: 0 to 49%

INPUT: Fill in pest or weed control at 75 ppm for record C[S+]([O-])c1cc(Cl)nc(Oc2ccc(CCNc3ncnc4scc(Cl)c34)cc2)c1 (centres unmarked) [Compound 92]
OUTPUT: 0 to 49%

###

# Test system: Magnaporthe grisea=Pyricularia oryzae
# ASSAY_OVERVIEW: whole plant or invertebrate
# Type: in vivo
# EXPERIMENTAL_CONTEXT: Pyricularia oryzae, foliar, read-out: PYRIOR disease control, 8.3 ppm (footnote c), rice foliage
EXPERIMENTAL_ENDPOINT: pest or weed control at 8.3 ppm

INPUT: Using known records, supply pest or weed control at 8.3 ppm for O=[N+]([O-])c1cccc(Oc2ccc(CCNc3ncnc4scc(Cl)c34)cc2)n1
OUTPUT: 80 to 100%

INPUT: Retrieve pest or weed control at 8.3 ppm measured for N#Cc1ccnc(Oc2ccc(CCNc3ncnc4scc(Br)c34)cc2)c1 and print it.
OUTPUT: 80 to 100%

INPUT: Indicate its recorded pest or weed control at 8.3 ppm; the compound in question is COc1cc(CCNc2ncnc3scc(Cl)c23)ccc1Oc1cc(C(F)(F)F)ccn1
OUTPUT: 80 to 100%

INPUT: // Input: CC(C)(C)c1nnc(Oc2ccc(CCNc3ncnc4scc(Cl)c34)cc2)s1 . Output its pest or weed control at 8.3 ppm only.
OUTPUT: 80 to 100%

INPUT: Consider the compound O=c1ncn(-c2cccc(Oc3ccc(CCNc4ncnc5scc(Cl)c45)cc3)n2)[nH]1 and give its recorded pest or weed control at 8.3 ppm.
OUTPUT: 50 to 79%

INPUT: Give pest or weed control at 8.3 ppm for CC(C)(C)c1noc(-c2cccc(Oc3ccc(CCNc4ncnc5scc(Cl)c45)cc3)n2)n1
OUTPUT: 50 to 79%

INPUT: Provide pest or weed control at 8.3 ppm value for the following compound: CC(C)(C)C(=O)NNc1cccc(Oc2ccc(CCNc3ncnc4scc(Cl)c34)cc2)n1
OUTPUT: 50 to 79%

INPUT: Given Clc1csc2ncnc(NCCc3ccc(Oc4nnc(COc5ccccc5)s4)cc3)c12 , respond with its pest or weed control at 8.3 ppm.
OUTPUT: 80 to 100%

INPUT: Using the record for COc1cnc(C(F)(F)F)c(F)c1Oc1ccc(CCNc2ncnc3scc(Cl)c23)cc1 , state its measured pest or weed control at 8.3 ppm.
OUTPUT: 80 to 100%

###

# Tested on: Leptosphaeria nodorum
# ASSAY_OVERVIEW: Glume Blotch of Wheat (LEPTNO) whole-plant disease control test
# Type: in vivo
# EXPERIMENTAL_CONTEXT: Parastagonospora nodorum, foliar; 75 ppm (footnote b), wheat foliage
Please respond with reported pest or weed control at 75 ppm for every item in the list.

INPUT: Specify the recorded pest or weed control at 75 ppm for O=[N+]([O-])c1cccc(Oc2ccc(CCNc3ncnc4scc(Cl)c34)cc2)n1 [Compound 83] , system: Leptosphaeria nodorum.
OUTPUT: 50 to 79%

INPUT: Provide measured pest or weed control at 75 ppm on Leptosphaeria nodorum for Clc1csc2ncnc(NCCc3ccc(Oc4snnc4-c4ccccc4)cc3)c12 [Compound 115] please.
OUTPUT: 50 to 79%

INPUT: Under Leptosphaeria nodorum, report pest or weed control at 75 ppm for Clc1nsc(Oc2ccc(CCNc3ncnc4scc(Cl)c34)cc2)n1 [Compound 120]
OUTPUT: 0 to 49%

INPUT: Provide Leptosphaeria nodorum pest or weed control at 75 ppm reading for O=Cc1sc(Oc2ccc(CCNc3ncnc4scc(Cl)c34)cc2)nc1Cl [Compound 121] .
OUTPUT: 0 to 49%

###

# Tested on: Colletotricum lagenarium
# ASSAY_OVERVIEW: Cucumber Anthracnose (COLLLA) whole-plant disease control test
# Assay type: in vivo
# EXPERIMENTAL_CONTEXT: Cucumis sativus, foliar; 200 ppm applied to foliage of cucumber; inoculated one day after treatment; read-out: COLLLA disease control
I'd be grateful if you could share measured pest or weed control at 200 ppm for these entries.

INPUT: Specify reported pest or weed control at 200 ppm for the compound shown: N#Cc1ncc(F)cc1Oc1ccc(CCNc2ncnc3scc(Cl)c23)cc1 [Compound 29]
OUTPUT: 50 to 79%

INPUT: Indicate its recorded pest or weed control at 200 ppm; the compound in question is N#Cc1ccncc1Oc1ccc(CCNc2ncnc3scc(Cl)c23)cc1 [Compound 74]
OUTPUT: 80 to 100%

INPUT: Determine its reported pest or weed control at 200 ppm: CC(Cc1ccc(Oc2c(Cl)cnc(C(F)(F)F)c2Cl)cc1)Nc1ncnc2scc(Cl)c12 (stereo not drawn) [Compound 94]
OUTPUT: 50 to 79%

INPUT: Supply recorded pest or weed control at 200 ppm for FC(F)(F)c1ccc(Oc2cccc(CCNc3ncnc4scc(Cl)c34)c2)nc1 [Compound 67] here.
OUTPUT: 0 to 49%

INPUT: For the compound FC(F)(F)c1ccnc(Oc2ccc(CCNc3ncnc4scc(Cl)c34)cc2)c1 [Compound 12] , give its reported pest or weed control at 200 ppm.
OUTPUT: 50 to 79%

INPUT: Give the reported pest or weed control at 200 ppm for this compound. N#Cc1nccnc1Oc1ccc(CCNc2ncnc3scc(Cl)c23)cc1 [Compound 125]
OUTPUT: 0 to 49%

INPUT: Write down pest or weed control at 200 ppm measured for item N#Cc1ccnc(Oc2ccc(CCNc3ncnc4scc(Cl)c34)cc2)n1 [Compound 41]
OUTPUT: 0 to 49%

INPUT: For the compound Cc1cc(Oc2ccc(CCNc3ncnc4scc(Cl)c34)cc2)cnc1S(C)(=O)=O [Compound 50] , give its reported pest or weed control at 200 ppm.
OUTPUT: 50 to 79%

INPUT: Fill in reported pest or weed control at 200 ppm for this entry: N#Cc1ncc(Oc2ccc(CCNc3ncnc4scc(Cl)c34)cc2)cn1 [Compound 40]
OUTPUT: 0 to 49%

###

Assignment: determine reported pest or weed control at 200 ppm for the given molecules.
# Tested on: Colletotricum lagenarium
# ASSAY_OVERVIEW: Cucumber Anthracnose (COLLLA) whole-plant disease control test
# Type: in vivo
# EXPERIMENTAL_CONTEXT: Cucumis sativus, foliar; 200 ppm applied to foliage of cucumber; inoculated one day after treatment; read-out: COLLLA disease control

INPUT: State its pest or weed control at 200 ppm: Clc1csc2ncnc(NCCc3ccc(Oc4ncc(Br)s4)cc3)c12
OUTPUT: 0 to 49%

INPUT: # return recorded pest or weed control at 200 ppm for input Clc1csc2ncnc(NCCc3ccc(Oc4cccc(C(Cl)(Cl)Cl)n4)cc3)c12
OUTPUT: 0 to 49%

INPUT: For NC(=O)c1ccc(Oc2ccc(CCNc3ncnc4scc(Cl)c34)cc2)nc1 , write its pest or weed control at 200 ppm.
OUTPUT: 0 to 49%

INPUT: Look up and report measured pest or weed control at 200 ppm for this entry: FC(F)(F)c1cc(Cl)nc(Oc2ccc(CCNc3ncnc4scc(Cl)c34)cc2)c1
OUTPUT: 80 to 100%

INPUT: Retrieve pest or weed control at 200 ppm measured for CS(=O)(=O)c1ccc(Oc2ccc(CCNc3ncnc4scc(Cl)c34)cc2)nc1 and print it.
OUTPUT: 0 to 49%

INPUT: Given the molecule Clc1csc2ncnc(NCCc3ccc(Oc4cnccn4)cc3)c12 , write its reported pest or weed control at 200 ppm.
OUTPUT: 50 to 79%

INPUT: State, in one line, measured pest or weed control at 200 ppm of COc1cc(C(F)(F)F)cc(Oc2ccc(CC(C)Nc3ncnc4scc(Cl)c34)cc2)n1 (centres unmarked)
OUTPUT: 50 to 79%

INPUT: Tell me pest or weed control at 200 ppm reported for Clc1csc2ncnc(NCCc3ccc(Oc4ncccn4)cc3)c12
OUTPUT: 0 to 49%

INPUT: Query pest or weed control at 200 ppm for Fc1cccc(Oc2ccc(CCNc3ncnc4scc(Cl)c34)cc2)n1
OUTPUT: 50 to 79%

INPUT: Look up and state reported pest or weed control at 200 ppm for O=C(Nc1ccc(CCNc2ncnc3scc(Cl)c23)cc1)c1ccnc(Cl)c1
OUTPUT: 50 to 79%

INPUT: Could you please provide reported pest or weed control at 200 ppm for Clc1csc2ncnc(NCCc3ccc(Oc4ccc(Br)cn4)cc3)c12 ? Thanks!
OUTPUT: 50 to 79%

INPUT: Supply reported pest or weed control at 200 ppm belonging to this molecule: Clc1csc2ncnc(NCCc3ccc(Oc4ncnc5scc(Cl)c45)cc3)c12
OUTPUT: 0 to 49%

INPUT: Output pest or weed control at 200 ppm of COc1cc(C(F)(F)F)cc(Oc2ccc(CCNc3ncnc4scc(Cl)c34)cc2)n1
OUTPUT: 50 to 79%

INPUT: Give reported pest or weed control at 200 ppm value for N#Cc1cccnc1Oc1ccc(CCNc2ncnc3scc(Cl)c23)cc1
OUTPUT: 50 to 79%

INPUT: Fill in reported pest or weed control at 200 ppm for this entry: N#Cc1nc(F)c(F)c(Oc2ccc(CCNc3ncnc4scc(Cl)c34)cc2)c1F
OUTPUT: 50 to 79%

INPUT: Check the records and state pest or weed control at 200 ppm for CC(C)c1cncnc1COc1ccc(CCNc2ncnc3scc(Cl)c23)cc1
OUTPUT: 0 to 49%

INPUT: Determine its reported pest or weed control at 200 ppm: COc1nc(OC)nc(Oc2ccc(CCNc3ncnc4scc(Cl)c34)cc2)n1
OUTPUT: 0 to 49%

INPUT: Fill in pest or weed control at 200 ppm for record CS(=O)(=O)c1cccc(Oc2ccc(CCNc3ncnc4scc(Cl)c34)cc2)n1
OUTPUT: 0 to 49%

INPUT: Tell us which pest or weed control at 200 ppm value is on record for FC(F)(F)c1cc(Oc2ccc(CCNc3ncnc4scc(Cl)c34)cc2)nc(C(F)(F)F)c1
OUTPUT: 50 to 79%

INPUT: Assign pest or weed control at 200 ppm to the following record: O=C(Oc1ccc(CCNc2ncnc3scc(Cl)c23)cc1)c1ccccn1
OUTPUT: 0 to 49%
